Attribution: patent US9073940B2

// reported IC50 per item
system: 4 PI3K isoforms (Human recombinant GST-PI3K); test: PI3K scintillation proximity assay, best IC50 obtained with the four isoforms (alpha, beta, delta, gamma); format: biochemical; conditions: best IC50 obtained with the four isoforms of PI3K; read-out: Best potency measured on the 4 PI3K isoforms

Compound: O=C(c1nn([C@H]2CCN(CCN3CCC(F)CC3)C2)c2c1CS(=O)(=O)c1ccccc1-2)N1CCOCC1 (single isomer, unassigned)
IC50: 3690 nM
--
Compound: O=C(c1nn(-c2ccc(CO)cc2)c2c1CS(=O)(=O)c1ccccc1-2)N1CCOCC1
IC50: 1060 nM
--
Compound: O=C(c1nn(C2CCC(O)CC2)c2c1CS(=O)(=O)c1ccccc1-2)N1CCOCC1 (stereo not drawn)
IC50: 512 nM
--
Compound: O=C(c1nn(C2CCCN(CCC3CCOCC3)C2)c2c1CS(=O)(=O)c1c(Cl)cccc1-2)N1CCOCC1 (stereo not drawn)
IC50: 38 nM
--
Compound: O=C(c1nn(-c2ccc3[nH]ncc3c2)c2c1CS(=O)(=O)c1ccccc1-2)N1CCOCC1
IC50: 1640 nM
--
Compound: NC(=O)c1cccc2c1S(=O)(=O)Cc1c(C(=O)N3CCOCC3)nn(-c3ccccc3)c1-2
IC50: 7900 nM

###

test system: 4 PI3K isoforms (Human recombinant GST-PI3K); experiment: PI3K scintillation proximity assay, best IC50 obtained with the four isoforms (alpha, beta, delta, gamma); assay type: biochemical; settings: best IC50 obtained with the four isoforms of PI3K; read-out: Best potency measured on the 4 PI3K isoforms
Where a name gives a salt, the structure may show the parent alone.
Label condition met when IC50 < 800 nM; otherwise condition not met.

Compound: O=C(c1nn([C@@H]2CCN(C3CCOCC3)C2)c2c1CS(=O)(=O)c1c(F)cccc1-2)N1CCOCC1 (single isomer, unassigned) [Example 353, hydrochloride salt]
Category: condition not met
--
Compound: O=C(c1nn(-c2ccccc2)c2c1CS(=O)(=O)c1cc(C(F)(F)F)ccc1-2)N1CCOCC1 [Example 158]
Category: condition not met
--
Compound: O=C(c1nn(-c2cccc(Nc3ccccc3)c2)c2c1CS(=O)(=O)c1ccccc1-2)N1CCOCC1 [Example 166]
Category: condition not met
--
Compound: Cc1noc(C)c1-c1cccc(-n2nc(C(=O)N3CCOCC3)c3c2-c2ccccc2S(=O)(=O)C3)c1 [Example 184]
Category: condition met
--
Compound: Cc1ccccc1-n1nc(C(=O)N2CCOCC2)c2c1-c1ccccc1S(=O)(=O)C2 [Example 19]
Category: condition not met
--
Compound: Cn1cc(-n2nc(C(=O)N3CCOCC3)c3c2-c2ccsc2S(=O)(=O)C3)ccc1=O [Example 195]
Category: condition not met
--
Compound: O=C(c1nn(C2CCCOC2)c2c1CS(=O)(=O)c1ccccc1-2)N1CCOCC1 (stereo not shown) [Example 99]
Category: condition met
--
Compound: CC1CN(Cc2ccc(-n3nc(C(=O)N4CCOCC4)c4c3-c3ccccc3S(=O)(=O)C4)cc2)CC(C)O1 (stereo not shown) [Example 435]
Category: condition met
--
Compound: COC1CN(Cc2ccc(-n3nc(C(=O)N4CCOCC4)c4c3-c3ccccc3S(=O)(=O)C4)cc2)C1 [Example 272]
Category: condition met

###

test system: 4 PI3K isoforms (Human recombinant GST-PI3K); test: PI3K scintillation proximity assay, best IC50 obtained with the four isoforms (alpha, beta, delta, gamma); assay type: biochemical; details: best IC50 obtained with the four isoforms of PI3K; read-out: Best potency measured on the 4 PI3K isoforms

Compound: COc1cccc2c1S(=O)(=O)Cc1c(C(=O)N3CCOCC3)nn([C@H]3CCCN(CCN4CCOCC4)C3)c1-2 (single isomer, unassigned)
IC50, nM: 59

Compound: O=C(c1nn(C2CCCNC2)c2c1CS(=O)(=O)c1ccccc1-2)N1CCOCC1 (stereo not drawn)
IC50, nM: 3010

Compound: COCCNCCN1CCC[C@H](n2nc(C(=O)N3CCOCC3)c3c2-c2ccccc2S(=O)(=O)C3)C1 (stereo in doubt)
IC50, nM: 34

Compound: COc1ccc2c(c1)-c1c(c(C(=O)N3CCOCC3)nn1C1CCCN(CCN3CCOCC3)C1)CS2(=O)=O (stereo not drawn)
IC50, nM: 28

Compound: O=C(c1nn(-c2ccc(CNC3CCOC3)cc2)c2c1CS(=O)(=O)c1ccccc1-2)N1CCOCC1 (stereo not drawn)
IC50, nM: 156

Compound: O=C(c1nn(C2CCCC2)c2c1CS(=O)(=O)c1ccccc1-2)N1CCOCC1
IC50, nM: 205

Compound: O=C(c1nn(-c2cccc(-c3nccs3)c2)c2c1CS(=O)(=O)c1ccccc1-2)N1CCOCC1
IC50, nM: 4220

Compound: O=C(c1nn([C@H]2CCCN(C(=O)C3CCOCC3)C2)c2c1CS(=O)(=O)c1ccccc1-2)N1CCOCC1
IC50, nM: 1500

Compound: O=C(c1nn(-c2ccccc2)c2c1CS(=O)(=O)c1ccccc1-2)N1CCCOCC1
IC50, nM: 9070

###

system: 4 PI3K isoforms (Human recombinant GST-PI3K); assay: PI3K scintillation proximity assay, best IC50 obtained with the four isoforms (alpha, beta, delta, gamma); assay type: biochemical; details: best IC50 obtained with the four isoforms of PI3K; read-out: Best potency measured on the 4 PI3K isoforms
pIC50: −log10 of the molar value. Structures can show the parent of a compound that is named as a salt.
Decide using pIC50: a value greater than or equal to 6 is y, a smaller one is n.

Compound: O=C(c1nn(C2CCCN(CCF)C2)c2c1CS(=O)(=O)c1ccccc1-2)N1CCOCC1 (single isomer, unassigned)
Study Target: 4 PI3K isoforms (Human recombinant GST-PI3K)
Category: y

Compound: O=C(c1ccc(-n2nc(C(=O)N3CCOCC3)c3c2-c2ccccc2S(=O)(=O)C3)cc1)N1CCOCC1
Study Target: 4 PI3K isoforms (Human recombinant GST-PI3K)
Category: y

Compound: CS(=O)(=O)c1cccc(-n2nc(C(=O)N3CCOCC3)c3c2-c2ccccc2S(=O)(=O)C3)c1
Study Target: 4 PI3K isoforms (Human recombinant GST-PI3K)
Category: n

Compound: O=C(c1nn([C@@H]2CCN(CCC3CCOCC3)C2)c2c1CS(=O)(=O)c1c(F)cccc1-2)N1CCOCC1 (single isomer, unassigned) [Example 356, hydrochloride salt]
Study Target: 4 PI3K isoforms (Human recombinant GST-PI3K)
Category: n

Compound: O=C(c1nn(-c2ccc(-c3ccccc3)cc2)c2c1CS(=O)(=O)c1ccccc1-2)N1CCOCC1
Study Target: 4 PI3K isoforms (Human recombinant GST-PI3K)
Category: n

Compound: O=C(c1nn(-c2cccc(CN3CCSCC3)c2)c2c1CS(=O)(=O)c1ccccc1-2)N1CCOCC1
Study Target: 4 PI3K isoforms (Human recombinant GST-PI3K)
Category: y

Compound: O=C(c1cccc(-n2nc(C(=O)N3CCOCC3)c3c2-c2ccccc2S(=O)(=O)C3)c1)N1CCCC(CO)C1 (stereo not drawn)
Study Target: 4 PI3K isoforms (Human recombinant GST-PI3K)
Category: y

Compound: COC1CCN(Cc2ccc(-n3nc(C(=O)N4CCOCC4)c4c3-c3ccccc3S(=O)(=O)C4)cc2)C1 (stereo not drawn)
Study Target: 4 PI3K isoforms (Human recombinant GST-PI3K)
Category: y

Compound: O=C(c1nn(C2CCCN(CCn3ccnc3)C2)c2c1CS(=O)(=O)c1ccccc1-2)N1CCOCC1 (stereo not drawn)
Study Target: 4 PI3K isoforms (Human recombinant GST-PI3K)
Category: y

Compound: O=C(c1nn([C@H]2CCCN(C3CCOCC3)CC2)c2c1CS(=O)(=O)c1ccccc1-2)N1CCOCC1 (single isomer, unassigned)
Study Target: 4 PI3K isoforms (Human recombinant GST-PI3K)
Category: y

Compound: O=C(c1nn(C2CCCN(CCC(F)(F)F)C2)c2c1CS(=O)(=O)c1ccccc1-2)N1CCOCC1 (stereo not drawn)
Study Target: 4 PI3K isoforms (Human recombinant GST-PI3K)
Category: y

Compound: O=C(c1ccc(-n2nc(C(=O)N3CCOCC3)c3c2-c2ccccc2S(=O)(=O)C3)cc1)N1CCCCC1
Study Target: 4 PI3K isoforms (Human recombinant GST-PI3K)
Category: y

Compound: O=C(c1nn(-c2ccc(N3CCOCC3)cc2)c2c1CS(=O)(=O)c1ccccc1-2)N1CCOCC1
Study Target: 4 PI3K isoforms (Human recombinant GST-PI3K)
Category: n

Compound: O=C(c1nn(C2CCOCC2)c2c1CS(=O)(=O)c1ccccc1-2)N1CCOCC1
Study Target: 4 PI3K isoforms (Human recombinant GST-PI3K)
Category: y

Compound: O=C(c1nn(-c2ccccc2)c2c1CS(=O)(=O)c1ncccc1-2)N1CCOCC1
Study Target: 4 PI3K isoforms (Human recombinant GST-PI3K)
Category: y

###

tested on: 4 PI3K isoforms (Human recombinant GST-PI3K); experiment: PI3K scintillation proximity assay, best IC50 obtained with the four isoforms (alpha, beta, delta, gamma); assay type: biochemical; settings: best IC50 obtained with the four isoforms of PI3K; read-out: Best potency measured on the 4 PI3K isoforms
pIC50: −log10 of the molar value. Structures can show the parent of a compound that is named as a salt.

Compound: O=C(c1nn(-c2ccccc2)c2c1CS(=O)(=O)c1sccc1-2)N1CCOCC1
pIC50: 5.77
--
Compound: Cc1cccc2c1S(=O)(=O)Cc1c(C(=O)N3CCOCC3)nn([C@H]3CCCN(CCN4CCOCC4)C3)c1-2 (stereo in doubt)
pIC50: 7.31
--
Compound: C[C@@H]1CN(CCN2CCC[C@H](n3nc(C(=O)N4CCOCC4)c4c3-c3ccccc3S(=O)(=O)C4)C2)C[C@H](C)O1 (single isomer, unassigned)
pIC50: 7.19
--
Compound: O=C(c1nn([C@H]2CCN(CCC3CCOCC3)C2)c2c1CS(=O)(=O)c1c(F)cccc1-2)N1CCOCC1 (single isomer, unassigned) [Example 354, hydrochloride salt]
pIC50: 7.04
--
Compound: O=C(c1nn(C2CCCN(CCN3CCOCC3)C2)c2c1CS(=O)(=O)c1ccccc1-2)N1CCOCC1 (centres unmarked)
pIC50: 6.91
--
Compound: O=C(c1nn([C@@H]2CCN(CCN3CCC(F)CC3)C2)c2c1CS(=O)(=O)c1ccccc1-2)N1CCOCC1 (single isomer, unassigned)
pIC50: 7.26
--
Compound: O=C(c1nn(-c2cccc(CN3CCCCC3)c2)c2c1CS(=O)(=O)c1ccccc1-2)N1CCOCC1
pIC50: 6.40
--
Compound: COCCN1CCC[C@H](n2nc(C(=O)N3CCOCC3)c3c2-c2ccccc2S(=O)(=O)C3)C1 (single isomer, unassigned)
pIC50: 7.40
--
Compound: O=C(c1nn(-c2ccccc2)c2c1NS(=O)(=O)c1ccccc1-2)N1CCOCC1
pIC50: 5.26
--
Compound: O=C(c1nn([C@@H]2CCCN(CCN3CCOCC3)C2)c2c1CS(=O)(=O)c1ccccc1-2)N1CCOCC1 (single isomer, unassigned)
pIC50: 5.89
--
Compound: O=C(c1nn(C2CCCN(CC3CCOCC3)C2)c2c1CS(=O)(=O)c1ccccc1-2)N1CCOCC1 (centres unmarked)
pIC50: 7.96
--
Compound: O=C(c1nn(C2CCCN(CCn3cccn3)C2)c2c1CS(=O)(=O)c1ccccc1-2)N1CCOCC1 (centres unmarked)
pIC50: 6.77
--
Compound: O=C(c1nn([C@H]2CCCN(C3CCOCC3)C2)c2c1CS(=O)(=O)c1ccccc1-2)N1CCOCC1 (stereo in doubt)
pIC50: 7.10
--
Compound: O=C(c1nn(-c2ccccc2)c2c1CS(=O)(=O)c1c(-c3ccccc3)cccc1-2)N1CCOCC1
pIC50: 4.75
--
Compound: O=C(c1nn(-c2cccc(-c3ccoc3)c2)c2c1CS(=O)(=O)c1ccccc1-2)N1CCOCC1
pIC50: 6.08
--
Compound: CC1CN(CCN2CCC[C@H](n3nc(C(=O)N4CCOCC4)c4c3-c3ccccc3S(=O)(=O)C4)C2)CCO1 (single isomer, unassigned)
pIC50: 7.54
--
Compound: CN1CCC(N2CCC[C@H](n3nc(C(=O)N4CCOCC4)c4c3-c3ccccc3S(=O)(=O)C4)C2)CC1 (stereo in doubt)
pIC50: 7.55
--
Compound: CN(C)c1cccc(-n2nc(C(=O)N3CCOCC3)c3c2-c2ccccc2S(=O)(=O)C3)c1
pIC50: 5.33
--
Compound: O=C(c1nn(-c2cccc(-c3cnn(CCN4CCOCC4)c3)c2)c2c1CS(=O)(=O)c1ccccc1-2)N1CCOCC1
pIC50: 6.47
--
Compound: COC1CCN(CCN2CCC[C@H](n3nc(C(=O)N4CCOCC4)c4c3-c3ccccc3S(=O)(=O)C4)C2)C1 (stereo in doubt)
pIC50: 7.60
